experiment.summary: Blood-brain barrier (BBB) study in SD rats after single IV and PO administration, brain
Format: in vivo
experimental.setup: Sprague-Dawley (SD); rat brain; PO 6 mg/kg
Entries and their log10(Cmax) values follow.
Plainly stated, the numbers are log10 of Cmax given in ng/g.

# annotated cases, reported log10(Cmax) shown
{"columns": ["compound", "attribute.measured", "reading"],
 "data": [
  ["O=C(O)[C@@H]1C[C@H]1c1ccc(Cn2cnc(Cl)c2)c(Cl)c1 [Compound 11]", "log10(Cmax)", 2.59],
  ["O=C(O)[C@@H]1C[C@H]1c1ccc(Cn2cnc(F)c2)cc1F [Compound 17]", "log10(Cmax)", 2.51],
  ["O=C(O)[C@@H]1C[C@H]1c1ccc(Cn2ccnc2)c(F)c1 [Compound 15]", "log10(Cmax)", 2.30],
  ["O=C(O)/C=C/c1ccc(Cn2ccnc2)cc1 [Ozagrel, reference compound]", "log10(Cmax)", 1.63],
  ["O=C(O)[C@@H]1C[C@H]1c1ccc(Cn2ccnc2)cc1 [Compound 19]", "log10(Cmax)", 2.23]
]}

Exercise: # log10(Cmax) lookup, item O=C(O)[C@@H]1C[C@H]1c1ccc(Cn2cnc(F)c2)c(Cl)c1 [Compound 18]
Key: 2.66

---

experiment.summary: Pharmacokinetics in SD rats after single IV and PO administration, plasma
Type: in vivo
experimental.setup: Sprague-Dawley (SD); rat plasma; PO 6 mg/kg vs IV 1 mg/kg
Entries and their bioavailability values follow.
Hi! Could you send only the number? It should be in %, unit omitted.

# annotated cases, reported bioavailability shown
{"columns": ["compound", "attribute.measured", "reading"],
 "data": [
  ["O=C(O)/C=C/c1ccc(Cn2ccnc2)cc1 [Ozagrel, reference compound]", "bioavailability", 87.5],
  ["O=C(O)[C@@H]1C[C@H]1c1ccc(Cn2cnc(F)c2)c(Cl)c1 [Compound 18]", "bioavailability", 172],
  ["O=C(O)[C@@H]1C[C@H]1c1ccc(Cn2cnc(F)c2)cc1F [Compound 17]", "bioavailability", 169],
  ["O=C(O)[C@@H]1C[C@H]1c1ccc(Cn2cnc(Cl)c2)c(Cl)c1 [Compound 11]", "bioavailability", 113],
  ["O=C(O)[C@@H]1C[C@H]1c1ccc(Cn2ccnc2)cc1 [Compound 19]", "bioavailability", 188]
]}

// next entry
Exercise: # bioavailability lookup, item O=C(O)[C@@H]1C[C@H]1c1ccc(Cn2ccnc2)c(F)c1 [Compound 15]
Key: 381

---

Entries and their C0 values follow.
experiment.summary: Pharmacokinetics in SD rats after single IV and PO administration, plasma
Assay type: in vivo
experimental.setup: Sprague-Dawley (SD); rat plasma; IV 1 mg/kg
Hi! Could you send only the number? It should be in ng/mL, unit omitted.

{"columns": ["molecule", "C0 / ng/mL"],
 "data": [
  ["O=C(O)[C@@H]1C[C@H]1c1ccc(Cn2cnc(Cl)c2)c(Cl)c1", 5150],
  ["O=C(O)[C@@H]1C[C@H]1c1ccc(Cn2cnc(F)c2)cc1F", 7320],
  ["O=C(O)/C=C/c1ccc(Cn2ccnc2)cc1 [Ozagrel, reference compound]", 3670],
  ["O=C(O)[C@@H]1C[C@H]1c1ccc(Cn2cnc(F)c2)c(Cl)c1", 6590],
  ["O=C(O)[C@@H]1C[C@H]1c1ccc(Cn2ccnc2)cc1", 6870]
]}

Exercise: # C0 lookup, item `O=C(O)[C@@H]1C[C@H]1c1ccc(Cn2ccnc2)c(F)c1`
Key: 3710
